- measurement_target: IDO1 (A172+IFNg cells, high IDO expressing cells) (Homo sapiens)
- Construct: A172+IFNg cells (high IDO expressing cells); endogenous in cells; host or cells: A172 cells induced with 100 ng/ml IFNγ
- Sequence (P14902 whole entry): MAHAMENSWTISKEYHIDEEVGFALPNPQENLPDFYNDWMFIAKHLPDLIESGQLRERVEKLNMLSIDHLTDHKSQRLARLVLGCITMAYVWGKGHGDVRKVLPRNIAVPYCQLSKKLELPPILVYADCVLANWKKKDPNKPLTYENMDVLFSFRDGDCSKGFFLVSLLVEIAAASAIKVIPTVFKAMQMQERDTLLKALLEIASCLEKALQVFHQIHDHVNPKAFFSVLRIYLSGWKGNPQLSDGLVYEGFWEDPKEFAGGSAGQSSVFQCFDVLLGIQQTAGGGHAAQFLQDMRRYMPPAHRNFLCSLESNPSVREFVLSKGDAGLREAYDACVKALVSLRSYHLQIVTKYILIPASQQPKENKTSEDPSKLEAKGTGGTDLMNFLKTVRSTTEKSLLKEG
- test_details: NFK GreenScreen cell assay, inhibition of IDO in A172+IFNg cells
- Assay type: cell-based
- measurement_conditions: read-out: IDO cell Fluor EC50
measured_metric: EC50 (nM)

>>> print(df.to_string())
                                   molecule  measured_metric  unit_label  result_value
0  CC(C)(C)OC(=O)N1CCC2(CC1)C[C@H](C1c3ccccc3-c3cncn31)[C@@H]2O (single isomer, unassigned)             EC50          nM          4300
1  CC(C)(C)OC(=O)N[C@H]1CC[C@]2(CC1)C[C@H]([C@H]1c3ccccc3-c3cncn31)[C@H]2O (single isomer, unassigned) [Example 24i]             EC50          nM           960
2  CC(C)(C)OC(=O)N[C@H]1CC[C@@]2(CC1)C[C@@H]([C@H]1c3ccccc3-c3cncn31)[C@@H]2O (single isomer, unassigned) [Example 24j]             EC50          nM           640

(a) CN(C)C(=O)CCC(=O)N1CCC2(CC1)CC(C1c3ccccc3-c3cncn31)C2O (stereo not shown)
(b) O=C(c1cnn2c1OCCC2)N1CCC2(CC1)CC(C1c3ccccc3-c3cncn31)C2O (stereo not shown)
Pick one, a or b : lowest reported EC50. Write down the label of the entry you select.
b
(b: 630 nM, a: 1500 nM)

(I) CC(C)(C)OC(=O)N1CC2CCC(C1)C21C[C@@H]([C@@H]2c3ccccc3-c3cncn32)[C@H]1O (stereo partly shown) [Example 22d]
(II) CC(C)(C)OC(=O)N1CCC2(CC[C@H]([C@H]3c4ccccc4-c4cncn43)[C@H]2O)CC1 (single isomer, unassigned)
Pick one, I or II : lowest reported EC50. Write down the label of the entry you select.
II
(II: 410 nM, I: 1400 nM)

###

- measurement_target: IDO1 (A172+IFNg cells, high IDO expressing cells) (Homo sapiens)
- Construct: A172+IFNg cells (high IDO expressing cells); endogenous in cells
- test_details: NFK GreenScreen cell assay, inhibition of IDO in A172+IFNg cells
- measurement_conditions: read-out: IDO cell Fluor EC50
pEC50: −log10 of the molar value.
measured_metric: pEC50

// below: answered compounds
                                   compound  measured_metric  result_value
0  O=C([C@H]1CC1(F)F)N1CCC2(CC[C@@H]([C@H]3c4ccccc4-c4cncn43)[C@H]2O)CC1 (single isomer, unassigned) [Example 25b]            pEC50          6.80
1  Cc1cc(CC(=O)N2CCC3(CC2)C[C@@H]([C@H]2c4ccccc4-c4cncn42)[C@H]3O)no1 [compound 54]            pEC50          6.62
2  N#CCS(=O)(=O)N1CCC2(CC1)CC(C1c3ccccc3-c3cncn31)C2O (stereo not shown) [Example 21a]            pEC50          6.82
3  CC(C)(C)OC(=O)N1[C@@H]2CC[C@H]1C[C@]1(C[C@H]([C@@H]3c4ccccc4-c4cncn43)[C@@H]1O)C2 [Example 12a]            pEC50          6.04
4  CC(C)(C)OC(=O)N1CCC2(CC1)C[C@@H]([C@H]1c3ccccc3-c3cncn31)[C@H]2O (single isomer, unassigned) [Example 1b]            pEC50          7.55

(a) CN1CCC(C(=O)N2CCC3(CC2)CC(C2c4ccccc4-c4cncn42)C3O)CC1=O (stereo not shown) [compound 40]
(b) CC(C)(C)OC(=O)N1CC2CCC(C1)C21C[C@H]([C@H]2c3ccccc3-c3cncn32)[C@H]1O (stereo partly shown) [Example 22f]
Pick the one with the larger pEC50: a vs b Write down the label of the entry you select.
b
